Measured growth values are reported for all entries that follow.
- Test system: SN12C renal
- method description: NCI-60 one-dose screen, 48 h (100 = growth as untreated, 0 = no growth, -100 = all killed)
- condition context: 10 µM unless noted
This is part of a sample that, as a whole, favours compounds with a hit. Of some 83,000 tested, about 20% had one in any assay.
attribute measured: growth (%)

INSERT INTO measurements (molecule, tested_target, value_reported) VALUES
  ('O=C(O)c1[nH]c(=O)[nH]c(=O)c1[N+](=O)[O-]', 'SN12C renal', 108),
  ('CCN(C(=O)N1CCN(c2cc3c(cc2F)c(=O)c(C(=O)O)cn3C2CC2)CC1)c1nc(-c2ccc(Cl)cc2)cs1', 'SN12C renal', 3.28),
  ('Cc1cccc(N2CCN(CC(O)COc3ccc(Cl)cc3)CC2)c1 (stereo not given)', 'SN12C renal', 95.2),
  ('COc1ccc2nc3ccc(OC)cc3c(SCCCN)c2c1', 'SN12C renal', 67.9),
  ('Fc1cccc(CNc2c3ccccc3nc3ccccc23)c1F', 'SN12C renal', 49),
  ('COc1ccc(OC)c(-c2c(C#N)c(-c3cccs3)nc3c2c(-c2ccccc2)nn3-c2ccccc2)c1', 'SN12C renal', 99.3),
  ('N#Cc1c(-c2cccs2)cc(-c2cccnc2)[nH]c1=O', 'SN12C renal', 95.2),
  ('CC1=NN(c2nc(SCC(=O)Nc3nc4ccc(C)cc4s3)nc(-c3ccccc3)c2C#N)C(=O)C1', 'SN12C renal', 95.6),
  ('O=C1c2cccc3cccc(c23)C(=O)N1N1C(=O)c2cccc3c(N4CCOCC4)ccc(c23)C1=O', 'SN12C renal', 88.8),
  ('Cc1cc(N)c2cc(NC(=O)/C=C\c3ccccc3Cl)ccc2n1', 'SN12C renal', -81.7);
